# Test system: HepaRG
# measurement notes: LDH release cytotoxicity, % of total lysis control; higher = more cytotoxic
# test context: 10 µM; 48 h
Quick list: LDH release cytotoxicity per entry.

Cc1nccn1-c1ccc(Sc2cccc(C3(C(N)=O)CCOCC3)c2)cc1; 7.65%
COCCOc1cc2cc(C(=O)NC3CCN(C(C)C)CC3)n(CC(=O)Nc3ccc(Cl)cn3)c2cn1; -0.194%
CC(C)(C)c1csc(-c2cc3cc(OCc4ccccc4CC(=O)O)ccc3o2)n1; -3.65%

Simply: "OC(CCl)CCl" , HepaRG, LDH release cytotoxicity = -0.32%

Simply: CC[C@H](C)C1O[C@]2(C=C[C@@H]1C)C[C@@H]1C[C@@H](C/C=C(\C)[C@@H](O[C@H]3C[C@H](OC)[C@@H](O[C@H]4C[C@H](OC)[C@H](NC)[C@H](C)O4)[C@H](C)O3)[C@@H](C)/C=C/C=C3\CO[C@@H]4[C@H](O)C(C)=C[C@@H](C(=O)O1)[C@]34O)O2 (some centres not stated) [Emamectin benzoate] , HepaRG, LDH release cytotoxicity = 5.16%

Simply: "CC(C)(C)c1ccccc1" , HepaRG, LDH release cytotoxicity = -1.35%

Simply: "OC(Cn1cncn1)(Cn1cncn1)c1ccc(F)cc1F" , HepaRG, LDH release cytotoxicity = 0.138%

###

# System: HepaRG
# measurement notes: LDH release cytotoxicity, % of total lysis control; higher = more cytotoxic
# test context: 0.3162278 µM; 48 h
Quick list: LDH release cytotoxicity per entry.

Simply: CCOC(=O)CC(SP(=S)(OC)OC)C(=O)OCC (centres undefined) , HepaRG, LDH release cytotoxicity = -0.165%

Simply: O=c1[nH]c2ccc(S(=O)CCN3CCC(Cc4ccc(F)cc4)CC3)cc2o1 (centres undefined) , HepaRG, LDH release cytotoxicity = -1.87%

Simply: "CC(C)(O)c1cnn2c(-c3ccc(F)c(-c4c(F)cccc4C#N)c3)cnc2n1" , HepaRG, LDH release cytotoxicity = -1.7%

Simply: "CC1(C)C(=O)N(Br)C(=O)N1Br" , HepaRG, LDH release cytotoxicity = -0.732%

Simply: "CCNC(=O)NC(=O)C(C#N)=NOC" , HepaRG, LDH release cytotoxicity = -2%

Simply: "O=C(CCCN1CCC(O)(c2ccc(Cl)cc2)CC1)c1ccc(F)cc1" , HepaRG, LDH release cytotoxicity = -1.58%

Simply: "c1ccc(-c2ccccc2)cc1" , HepaRG, LDH release cytotoxicity = -2.88%

Simply: CC(C)(C)OOC(=O)c1ccccc1 [tert-Butyl perbenzoate] , HepaRG, LDH release cytotoxicity = -1.06%

Simply: CCOC(=O)C(Cl)Cc1cc(-n2nc(C)n(C(F)F)c2=O)c(F)cc1Cl (centres undefined) , HepaRG, LDH release cytotoxicity = -0.782%

###

Quick list: LDH release cytotoxicity per entry.
# System: HepaRG
# measurement notes: LDH release cytotoxicity, % of total lysis control; higher = more cytotoxic
# test context: 3.16228 µM; 48 h
# number only, unit % dropped from output

CC(O)CN(CCN(CC(C)O)CC(C)O)CC(C)O (stereo not given) [1,1',1'',1'''-(Ethanediylnitrilo)tetrakis(2-propanol)]; -2.41

// field: LDH release cytotoxicity; key: CCC(=CC(N=O)C(N)=O)C(C)[N+](=O)[O-] (stereo not given) ; value = -0.165

// field: LDH release cytotoxicity; key: "CN(C)c1nc(=O)n(C2CCCCC2)c(=O)n1C" ; value = -0.406

// field: LDH release cytotoxicity; key: CCC(=NOCC=CCl)C1C(=O)CC(C2CCOCC2)CC1=O (stereo not given) ; value = -1.7

// field: LDH release cytotoxicity; key: O=C1N=CC(F)C(=O)N1 (stereo not given) ; value = -1.66

// field: LDH release cytotoxicity; key: "COc1cc(S(=O)(=O)O)c(C)cc1N=Nc1c(O)ccc2cc(S(=O)(=O)O)ccc12" ; value = -1.42

// field: LDH release cytotoxicity; key: "CC(C)CCCCCCCOC(=O)c1ccccc1C(=O)OCCCCCCCC(C)C" ; value = -0.979

// field: LDH release cytotoxicity; key: "CCN(CC)CCNc1ccc(CNC=O)c2sc3ccc(OC)cc3c(=O)c12" ; value = 1.37

// field: LDH release cytotoxicity; key: COC(=O)c1ccccc1N [Methyl 2-aminobenzoate] ; value = 0.248

// field: LDH release cytotoxicity; key: "CS(=O)(=O)NC(=O)c1cc(Oc2ccc(C(F)(F)F)cc2Cl)ccc1[N+](=O)[O-]" ; value = -0.773
